This listing pairs compounds with measured EC50.
Biological target: human FFAR1 (GPR40) (Homo sapiens, UniProt O14842)
Construct: Flag
Sequence (O14842 whole entry): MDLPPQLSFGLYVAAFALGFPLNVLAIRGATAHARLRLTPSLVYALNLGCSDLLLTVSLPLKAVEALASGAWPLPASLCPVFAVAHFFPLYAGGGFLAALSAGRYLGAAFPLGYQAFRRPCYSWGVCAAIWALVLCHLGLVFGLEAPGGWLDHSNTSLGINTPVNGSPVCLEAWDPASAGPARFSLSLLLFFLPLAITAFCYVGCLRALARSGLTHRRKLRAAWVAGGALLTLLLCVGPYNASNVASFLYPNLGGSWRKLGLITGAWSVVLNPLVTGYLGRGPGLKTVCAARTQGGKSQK
Assay: NFAT-RE-based reporter gene activity assay (Dual-Glo luciferase) for GPR40 agonistic activity in co-transfected HEK293T cells
Details: 4-hour treatment
Experimental: The pcDNA3.0-flag-FFAR1 (GPR40) plasmid was constructed using conventional molecular cloning methods. […] After 4 hours of compound treatment, the cells were assayed according to the instructions of the Dual-Glo® Luciferase Assay System (Promega, # E2940). […] Then, 80 µL of the lysate reaction solution was transferred to a white opaque optiPlate-96 well plate, and the luminescence signal of Firefly luciferase (Firefly-Luc) was measured using an MD i3x multifunctional microplate reader. […]

{"compound": "Cc1ccccc1N1CCC(c2oc3cc(C(CC(=O)O)C4CC4)ccc3c2-c2cccc(C(C)(C)C)c2)CC1 (stereo not shown) [Compound 5]", "EC50": "0.1 to 0.5 µM"}
{"compound": "Cc1ccc(N2CCC(c3oc4cc(C(CC(=O)O)C5CC5)ccc4c3-c3cccc(C(C)(C)C)c3)CC2)cc1 (stereo not shown) [Compound 3]", "EC50": "0.1 to 0.5 µM"}
{"compound": "COc1cccc(N2CCC(c3oc4cc([C@@H](CC(=O)O)C5CC5)ccc4c3-c3cnn(C(C)(C)C)c3)CC2)c1 [Compound 38]", "EC50": "0.01 to 0.1 µM"}
{"compound": "COc1cccc(N2CCC(c3oc4cc([C@@H](CC(=O)O)C5CC5)ccc4c3C(=O)Nc3cc(N4CCOCC4)ccc3Cl)CC2)c1 [Compound 285]", "EC50": "≤ 0.01 µM"}
{"compound": "COc1cccc(N2CCC(c3oc4cc(C(CC(=O)O)C5CC5)ccc4c3-c3cnn(C(C)(C)C#N)c3)CC2)c1 (stereo not shown) [Compound 127]", "EC50": "0.1 to 0.5 µM"}
{"compound": "COc1cccc(N2CCC(c3oc4cc([C@@H](CC(=O)O)C5CC5)ccc4c3-c3csc(C(C)(C)C)n3)CC2)c1 [Compound 108]", "EC50": "0.01 to 0.1 µM"}
{"compound": "COc1cccc(N2CCC(c3oc4cc(C(CC(=O)O)C5CC5)ccc4c3C(=O)Nc3cccc(C#N)c3)CC2)c1 (stereo not shown) [Compound 249]", "EC50": "0.1 to 0.5 µM"}

====

target: human FFAR1 (GPR40) (Homo sapiens, UniProt O14842); construct: Flag; expressed in transfected cells; host or cells: HEK293T; assay: NFAT-RE-based reporter gene activity assay (Dual-Glo luciferase) for GPR40 agonistic activity in co-transfected HEK293T cells; format: cell-based; details: 4-hour treatment, class symbols
value-type: Efficacy (%)

{"molecule": "COc1cccc(N2CCC(c3oc4cc([C@@H](CC(=O)O)C5CC5)ccc4c3C(C)OCC3CCCC3)CC2)c1 (stereo partly drawn)", "value-type": "Efficacy (%)", "reading": "††††"}
{"molecule": "COc1cccc(N2CCC(c3oc4cc([C@@H](CC(=O)O)C5CC5)ccc4c3-c3cc(C)ccn3)CC2)c1", "value-type": "Efficacy (%)", "reading": "††† (Efficacy (%) > 150)"}
{"molecule": "COc1cccc(N2CCC(c3oc4cc([C@@H](CC(=O)O)C5CC5)ccc4c3C(=O)Nc3cc(C)ccc3Cl)CC2)c1", "value-type": "Efficacy (%)", "reading": "††† (Efficacy (%) > 150)"}
{"molecule": "COc1cccc(N2CCC(c3oc4cc([C@@H](CC(=O)O)C5CC5)ccc4c3C(OCC(C)C)c3ccccc3)CC2)c1 (stereo partly drawn)", "value-type": "Efficacy (%)", "reading": "††† (Efficacy (%) > 150)"}

====

The following compounds are shown together with reported EC50 values.
target: human FFAR1 (GPR40) (Homo sapiens, UniProt O14842); construct: Flag; experiment: NFAT-RE-based reporter gene activity assay (Dual-Glo luciferase) for GPR40 agonistic activity in co-transfected HEK293T cells; conditions: 4-hour treatment

{"compound": "CC(C)(C)n1cc(-c2c(C3CCN(c4cccc(OC(F)F)c4)CC3)oc3cc(C(CC(=O)O)C4CC4)ccc23)cn1 (stereo not drawn)", "EC50": "100 to 500 nM"}
{"compound": "CC(C)(C)c1ccc(-c2c(C3CCN(c4ccc5c(c4)OCC5)CC3)oc3cc(C(CC(=O)O)C4CC4)ccc23)cc1 (stereo not drawn)", "EC50": "100 to 500 nM"}
{"compound": "COC(=O)C(C)(C)n1cc(-c2c(C3CCN(c4cccc(OC)c4)CC3)oc3cc(C(CC(=O)O)C4CC4)ccc23)cn1 (stereo not drawn)", "EC50": "100 to 500 nM"}
{"compound": "COc1ccc(F)c(N2CCC(c3oc4cc(C(CC(=O)O)C5CC5)ccc4c3/C=C/C(C)(C)C)CC2)c1 (stereo not drawn)", "EC50": "10 to 100 nM"}
{"compound": "COc1cccc(N2CCC(c3oc4cc([C@@H](CC(=O)O)C5CC5)ccc4c3-c3cccc(C)c3)CC2)c1", "EC50": "100 to 500 nM"}
{"compound": "COc1ccc(F)c(N2CCC(c3oc4cc(C(CC(=O)O)C5CC5)ccc4c3CCOC(C)C)CC2)c1 (stereo not drawn)", "EC50": "100 to 500 nM"}
{"compound": "COc1ccc(F)c(N2CCC(c3oc4cc(C(CC(=O)O)C5CC5)ccc4c3-c3ccc(C(=O)N(C)CC(C)(C)C)cc3)CC2)c1 (stereo not drawn)", "EC50": "100 to 500 nM"}
{"compound": "CC(C)(C)c1cccc(-c2c(C3CCN(c4ccccc4OC(F)(F)F)CC3)oc3cc(C(CC(=O)O)C4CC4)ccc23)c1 (stereo not drawn)", "EC50": "100 to 500 nM"}
{"compound": "CCCCC[C@H]1CC[C@H](c2nnc(-c3c(C4CCN(c5cccc(OC)c5)CC4)oc4cc(C(CC(=O)O)C5CC5)ccc34)o2)CC1 (relative stereo)", "EC50": "100 to 500 nM"}
{"compound": "CCC(C)(C)c1nnc(-c2c(C3CCN(c4cccc(OC)c4)CC3)oc3cc(C(CC(=O)O)C4CC4)ccc23)o1 (stereo not drawn)", "EC50": "10 to 100 nM"}
{"compound": "COc1ccc(C(=O)N(C)CC(C)(C)C)c(N2CCC(c3oc4cc([C@@H](CC(=O)O)C5CC5)ccc4c3-c3cnn(C(C)(C)C)c3)CC2)c1", "EC50": "100 to 500 nM"}
{"compound": "COc1ccc(F)c(N2CCC(c3oc4cc(C(CC(=O)O)C5CC5)ccc4c3-c3ccc(NC(C)C)cc3)CC2)c1 (stereo not drawn)", "EC50": "100 to 500 nM"}
{"compound": "COc1ccc(F)c(N2CCC(c3oc4cc(C(CC(=O)O)C5CC5)ccc4c3C(=O)NC3CC3)CC2)c1 (stereo not drawn)", "EC50": "> 500 nM"}
{"compound": "COc1cccc(N2CCC(c3oc4cc([C@@H](CC(=O)O)C5CC5)ccc4c3C(=O)Nc3ccccc3C)CC2)c1", "EC50": "10 to 100 nM"}
{"compound": "COc1ccc(F)c(N2CCC(c3oc4cc(C(CC(=O)O)C5CC5)ccc4c3-c3ccc(C(=O)N4CCCC4)cc3)CC2)c1 (stereo not drawn)", "EC50": "100 to 500 nM"}
{"compound": "COc1cccc(N2CCC(c3oc4cc(C(CP(=O)(O)OC)C5CC5)ccc4c3-c3cnn(C(C)(C)C)c3)CC2)c1 (stereo not drawn)", "EC50": "> 500 nM"}
{"compound": "O=C(O)C[C@H](c1ccc2c(C(=O)Nc3cc(C(F)(F)F)ccc3Cl)c(C3CCN(c4ccc5c(c4)OCO5)CC3)oc2c1)C1CC1", "EC50": "≤ 10 nM"}
{"compound": "COc1cccc(N2CCC(c3oc4cc([C@@H](CC(=O)O)C5CC5)ccc4c3-c3nc(C(C)C)cs3)CC2)c1", "EC50": "100 to 500 nM"}
{"compound": "Cc1cccc(N2CCC(c3oc4cc(C(CC(=O)O)C5CC5)ccc4c3-c3cccc(C(C)(C)C)c3)CC2)c1 (stereo not drawn)", "EC50": "100 to 500 nM"}
{"compound": "COc1cccc(N2CCC(c3oc4cc(C(CC(=O)O)C5CC5)ccc4c3-c3csc(C)c3)CC2)c1 (stereo not drawn)", "EC50": "100 to 500 nM"}
{"compound": "COc1ccc(F)c(N2CCC(c3oc4cc(C(CC(=O)O)C5CC5)ccc4c3CC(C)OC)CC2)c1 (stereo not drawn)", "EC50": "> 500 nM"}
{"compound": "COc1ccc(F)c(N2CCC(c3oc4cc(C(CC(=O)O)C5CC5)ccc4c3C(=O)NCC(C)(C)C)CC2)c1 (stereo not drawn)", "EC50": "100 to 500 nM"}
{"compound": "COc1ccc(F)c(N2CCC(c3oc4cc(C(CC(=O)O)C5CC5)ccc4c3-c3cccc(C#N)c3)CC2)c1 (stereo not drawn)", "EC50": "100 to 500 nM"}
{"compound": "CCc1ccc(Cl)c(NC(=O)c2c(C3CCN(c4cc(OC)ccc4F)CC3)oc3cc([C@@H](CC(=O)O)C4CC4)ccc23)c1", "EC50": "≤ 10 nM"}
{"compound": "COc1ccc(F)c(N2CCC(c3oc4cc([C@@H](CC(=O)O)C5CC5)ccc4c3-c3ccc(C(C)(C)C)cc3)CC2)c1", "EC50": "100 to 500 nM"}
{"compound": "COc1cccc(N2CCC(c3oc4cc([C@@H](CC(=O)O)C5CC5)ccc4c3-c3ccc(C(C)(C)C)cc3)CC2)c1", "EC50": "10 to 100 nM"}
{"compound": "CCc1cccc(N2CCC(c3oc4cc(C(CC(=O)O)C5CC5)ccc4c3-c3ccc(C(C)(C)C)cc3)CC2)c1 (stereo not drawn)", "EC50": "> 500 nM"}
